FYI, the data here is from patent US20170290876A1.

assay_target: T1, human VEGF (human, UniProt P15692 207-395, biotinylated (site not stated))
T1 construct: Biotinylated human VEGF generated internally; also called hVEGF; hVEGF-biotin
T1 sequence: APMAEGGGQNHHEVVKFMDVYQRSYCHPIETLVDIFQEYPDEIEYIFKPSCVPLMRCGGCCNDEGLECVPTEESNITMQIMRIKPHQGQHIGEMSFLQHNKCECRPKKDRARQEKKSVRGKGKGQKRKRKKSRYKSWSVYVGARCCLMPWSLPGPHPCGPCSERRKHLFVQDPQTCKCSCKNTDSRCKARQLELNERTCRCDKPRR
procedure_summary: Biacore SPR, hVEGF
// values below are reported log10(koff)
endpoint_name: log10(koff) (log10 of the value in s⁻¹)

binder: HC7T (Fab, V domains shown, Tagged heavy chain CDR variant HC7 with NVS4 light chain) VH: EVQLVESGGGLVQPGGSLRLSCTASGFSLTKYYYMTWVRQAPGKGLEWVGFIKPKDKPYKATWAKGRFTISRDNSKNTLYLQMNSLRAEDTAVYYCAGGDHNSGWGLDIWGQGTLVTVSS VL: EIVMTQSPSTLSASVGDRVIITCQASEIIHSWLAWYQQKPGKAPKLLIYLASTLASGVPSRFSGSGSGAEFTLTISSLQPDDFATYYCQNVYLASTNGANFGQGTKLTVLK
log10(koff): -0.73

binder: NVS4 heavy chain variant D55Q + D56N (Fab, V domains shown, CDR variant of NVS4) VH: EVQLVESGGGLVQPGGSLRLSCTASGFSLTDYYYMTWVRQAPGKGLEWVGFIDPQNDPYYATWAKGRFTISRDNSKNTLYLQMNSLRAEDTAVYYCAGGDHNSGWGLDIWGQGTLVTVSS VL: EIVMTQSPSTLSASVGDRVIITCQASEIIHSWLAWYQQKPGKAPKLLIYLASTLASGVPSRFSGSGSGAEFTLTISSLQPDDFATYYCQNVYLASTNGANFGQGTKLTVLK
log10(koff): -3.18

binder: LC4T (Fab, V domains shown, Light chain CDR variant LC4 with tagged NVS4 heavy chain) VH: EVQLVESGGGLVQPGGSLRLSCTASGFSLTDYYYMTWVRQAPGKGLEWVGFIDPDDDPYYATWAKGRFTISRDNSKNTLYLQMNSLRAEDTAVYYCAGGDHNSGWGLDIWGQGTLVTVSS VL: EIVMTQSPSTLSASVGDRVIITCQASQKIHSWLAWYQQKPGKAPKLLIYQASTLAKGVPSRFSGSGSGAEFTLTISSLQPDDFATYYCQNVYLASTNGANFGQGTKLTVLK
log10(koff): -3.87

binder: LC7T (Fab, V domains shown, Light chain CDR variant LC7 with tagged NVS4 heavy chain) VH: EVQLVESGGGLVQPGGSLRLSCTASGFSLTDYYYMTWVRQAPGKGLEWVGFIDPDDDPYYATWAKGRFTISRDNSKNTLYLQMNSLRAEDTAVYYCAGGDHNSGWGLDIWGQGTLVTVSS VL: EIVMTQSPSTLSASVGDRVIITCQASQKIKSWLAWYQQKPGKAPKLLIYLASTLAKGVPSRFSGSGSGAEFTLTISSLQPDDFATYYCQNVYLASRNGANFGQGTKLTVLK
log10(koff): -3.64

binder: NVS4 heavy chain variant Y59F (Fab, V domains shown, CDR variant of NVS4) VH: EVQLVESGGGLVQPGGSLRLSCTASGFSLTDYYYMTWVRQAPGKGLEWVGFIDPDDDPFYATWAKGRFTISRDNSKNTLYLQMNSLRAEDTAVYYCAGGDHNSGWGLDIWGQGTLVTVSS VL: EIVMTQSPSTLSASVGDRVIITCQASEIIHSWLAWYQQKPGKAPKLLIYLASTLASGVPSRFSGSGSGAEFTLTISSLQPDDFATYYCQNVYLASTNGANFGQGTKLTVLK
log10(koff): -3.98
